Test system: HeLa-ACE2 cells
SETUP CONDITIONS: human
PROPERTY NAME: CC50

In: Please report the recorded CC50 for CC(C)(C)[C@H](NC(=O)C(F)(F)F)C(=O)N1C[C@H]2[C@@H]([C@H]1C(=O)N[C@H](C#N)C[C@@H]1CCNC1=O)C2(C)C .
Out: > 5 µM

====

Tested on: SARS-CoV-2 Omicron BA.1
ASSAY EXPLANATION: In vitro antiviral assay in HeLa-ACE2 cells
Type: cell-based
SETUP CONDITIONS: Severe acute respiratory syndrome coronavirus 2, HeLa-ACE2
PROPERTY NAME: IC50
A bare number is not enough; add the unit after it.

In: Please report the recorded IC50 for CC(C)(C)[C@H](NC(=O)C(F)(F)F)C(=O)N1C[C@H]2[C@@H]([C@H]1C(=O)N[C@H](C#N)C[C@@H]1CCNC1=O)C2(C)C [Nirmatrelvir, nirmatrelvir] .
Out: 0.03 µM

====

Test system: SARS-CoV-2 Omicron JN.1
ASSAY EXPLANATION: In vitro antiviral assay in HeLa-ACE2 cells
Type: cell-based
SETUP CONDITIONS: Severe acute respiratory syndrome coronavirus 2, HeLa-ACE2
PROPERTY NAME: IC50 (µM)
Express it in µM; write the number only.

In: Please report the recorded IC50 for CC(C)(C)[C@H](NC(=O)C(F)(F)F)C(=O)N1C[C@H]2[C@@H]([C@H]1C(=O)N[C@H](C#N)C[C@@H]1CCNC1=O)C2(C)C .
Out: 0.06

Data credit: paper PMC11456799
